Entry source: PubChem BioAssay (Tox21)

# target.of.assay: Androgen receptor (Homo sapiens)
# assay: qHTS assay to identify small molecule antagonists of the androgen receptor (AR) signaling pathway using the MDA cell line (AID 743042; note: % is set by controls: 0 for no effect and ±100 for the full control effect; nearly all actives have a fitted effect of over 55% in size)
# run.parameters: MDA-kb2 AR-luc, MMTV luciferase, R1881 antagonist, 16 h; series mostly up to 70.3 µM
Results filed as inconclusive are left out. Calls of active or inactive are those of the source. Calls come from the whole dose curve; as a rule, active = well fitted inhibition curve with a large enough effect in the repeat runs; inconclusive = weak or mixed curves, or effect the other way; inactive = no such curve, though single readings can be large or run the other way.

[
  {
    "molecule": "CC(=O)CC(=O)OC(C)(C)C",
    "outcome": "inactive"
  },
  {
    "molecule": "CCO[Si](CC)(OCC)OCC",
    "outcome": "inactive"
  },
  {
    "molecule": "CC(C)C1OCCN1CCOC(=O)NCCCCCCNC(=O)OCCN1CCOC1C(C)C (stereo not given)",
    "outcome": "inactive"
  },
  {
    "molecule": "CC(Oc1cc(Cl)ccc1Cl)C(=O)O (stereo not given)",
    "outcome": "inactive"
  },
  {
    "molecule": "O=C(O)CSCC(=O)NC1CCSC1=O (stereo not given)",
    "outcome": "inactive"
  },
  {
    "molecule": "C#CCN[C@@H]1CCc2ccccc21",
    "outcome": "inactive"
  },
  {
    "molecule": "CCC(C)OC(C)CC (stereo not given)",
    "outcome": "inactive"
  },
  {
    "molecule": "OCC1CCC(CO)CC1 (stereo not given)",
    "outcome": "inactive"
  },
  {
    "molecule": "CCC(=O)c1c(O)cc(O)cc1O",
    "outcome": "inactive"
  },
  {
    "molecule": "O=C(NCN1CCOCC1)c1cnccn1",
    "outcome": "inactive"
  },
  {
    "molecule": "COC(=O)c1cc(Cl)cc(Cl)c1",
    "outcome": "inactive"
  },
  {
    "molecule": "COC(C)(OC)OC",
    "outcome": "inactive"
  },
  {
    "molecule": "N[C@@H](CSCCCO)C(=O)O",
    "outcome": "inactive"
  },
  {
    "molecule": "CCCCCCCCCOC(=O)c1ccccc1C(=O)OCCCCCCCCC",
    "outcome": "inactive"
  },
  {
    "molecule": "Cc1c(C(=O)c2c[nH]n(C)c2=O)ccc(S(C)(=O)=O)c1C1=NOCC1",
    "outcome": "inactive"
  },
  {
    "molecule": "CCO",
    "outcome": "inactive"
  },
  {
    "molecule": "COc1cc2c(cc1OC)C(=O)C(CC1CCN(Cc3ccccc3)CC1)C2 (stereo not given)",
    "outcome": "inactive"
  },
  {
    "molecule": "O=C(Cl)c1ccccc1[N+](=O)[O-]",
    "outcome": "inactive"
  },
  {
    "molecule": "CC(=O)O[C@@H]1CC2CCC1(C)C2(C)C (stereo not given in full)",
    "outcome": "inactive"
  },
  {
    "molecule": "C=CCOC(=O)CCCCCC",
    "outcome": "inactive"
  },
  {
    "molecule": "CC(=O)c1cc(C)oc1C",
    "outcome": "inactive"
  },
  {
    "molecule": "CC(=O)O[C@H]1C[C@@H]2CC[C@@]1(C)C2(C)C",
    "outcome": "inactive"
  },
  {
    "molecule": "CC(C)COC(=O)c1ccccc1",
    "outcome": "inactive"
  },
  {
    "molecule": "CC(S)C(C)S (stereo not given)",
    "outcome": "inactive"
  },
  {
    "molecule": "CC(=O)OC1CCCCC1C(C)(C)C (stereo not given)",
    "outcome": "inactive"
  }
]

###

# assay: qHTS assay to identify aromatase inhibitors - cell viability counter screen (AID 743084);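 note: cells stimulated with testosterone during compound exposure; % is set by controls: 0 for no effect and ±100 for the full control effect; nearly all actives have a fitted effect of over 55% in size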
# run.parameters: MCF-7 aro ERE viability, CellTiter-Fluor, 24 h; series mostly up to 70.3 µM
Records with an inconclusive call do not appear. The source made the active and inactive calls. The call rests on the fitted dose curve; in most records, active means well fitted cell-killing curve with a large enough effect in the repeat runs; inconclusive means weak or mixed curves, or effect the other way; inactive means no such curve, though single readings can be large or run the other way.

[
  {
    "compound": "CCOC(CN1CCN(CC(C)C(=O)c2ccccc2)CC1)c1ccccc1 (stereo not drawn)",
    "activity change, negative = cytotoxicity": "inactive"
  },
  {
    "compound": "COC(=O)CCCCC(=O)O",
    "activity change, negative = cytotoxicity": "inactive"
  },
  {
    "compound": "CC(C)=CCC/C(C)=C/COC=O",
    "activity change, negative = cytotoxicity": "inactive"
  }
]

###

# target.of.assay: Nuclear receptor subfamily 1 group I member 2 (Rattus norvegicus)
# assay: Rat pregnane X receptor (rPXR) activation by small molecules, qHTS assay (AID 1346983); note: % is set by controls: 0 for no effect and ±100 for the full control effect; nearly all actives have a fitted effect of over 20% in size
# run.parameters: rPXR luciferase reporter cells, One-Glo luminescence, 24 h; stronger effect = higher value
# Source text: National Center for Advancing Translational Sciences [NCATS] NIH Chemical Genomics Center [NCGC] U.S. Environmental Protection Agency [EPA] National Institutes of Environmental Health Sciences [NIEHS] National Toxicology Program [NTP] Assay overview: The Pregnane X receptor (PXR), a ligand activated nuclear receptor plays a critical role in the regulation of genes involved in drug metabolism and transporters. […]
Records with an inconclusive call do not appear. Positions of bridges follow the written chain, without caps; N, C: chain ends. Non-standard residues stand in square brackets, D forms with d. Residues, ends and D or L forms follow the SMILES beside them. hArg = N=C(N)NCCCC[C@H](N)C(=O)O; Mpa = O=C(O)CCS

[
  {
    "compound": "O=C(NCN1CCOCC1)c1cnccn1",
    "target.of.assay": "Nuclear receptor subfamily 1 group I member 2 (Rattus norvegicus)",
    "units.of.measure": "%",
    "max activation": -1.75
  },
  {
    "compound": "CN(C)CCOC(=O)C(c1ccccc1)C1(O)CCCC1 (stereo unspecified)",
    "target.of.assay": "Nuclear receptor subfamily 1 group I member 2 (Rattus norvegicus)",
    "units.of.measure": "%",
    "max activation": 3.01
  },
  {
    "compound": "NC(=O)[C@@H]1CSSCCC(=O)N[C@@H](CCCCN=C(N)N)C(=O)NCC(=O)N[C@@H](CC(=O)O)C(=O)N[C@@H](Cc2c[nH]c3ccccc23)C(=O)N2CCC[C@H]2C(=O)N1 ([Mpa][hArg]GDWPC-NH2; disulfide 1-7)",
    "target.of.assay": "Nuclear receptor subfamily 1 group I member 2 (Rattus norvegicus)",
    "units.of.measure": "%",
    "max activation": -0.95
  },
  {
    "compound": "CC(C)NCC(O)c1ccc2ccccc2c1 (stereo unspecified)",
    "target.of.assay": "Nuclear receptor subfamily 1 group I member 2 (Rattus norvegicus)",
    "units.of.measure": "%",
    "max activation": -0.315
  },
  {
    "compound": "CCn1cc(C(=O)O)c(=O)c2cnc(N3CCCC3)nc21",
    "target.of.assay": "Nuclear receptor subfamily 1 group I member 2 (Rattus norvegicus)",
    "units.of.measure": "%",
    "max activation": -0.363
  },
  {
    "compound": "CC(C)=CCC[C@@](C)(O)[C@H]1CC=C(C)CC1",
    "target.of.assay": "Nuclear receptor subfamily 1 group I member 2 (Rattus norvegicus)",
    "units.of.measure": "%",
    "max activation": 1.39
  },
  {
    "compound": "CC(C)Cn1cnc2c1c(=O)n(C)c(=O)n2C",
    "target.of.assay": "Nuclear receptor subfamily 1 group I member 2 (Rattus norvegicus)",
    "units.of.measure": "%",
    "max activation": 0.329
  },
  {
    "compound": "Cn1nnc2c(C(N)=O)ncn2c1=O",
    "target.of.assay": "Nuclear receptor subfamily 1 group I member 2 (Rattus norvegicus)",
    "units.of.measure": "%",
    "max activation": -4.63
  },
  {
    "compound": "CCCC(=O)Nc1ccc(OCC(O)CNC(C)C)c(C(C)=O)c1 (stereo unspecified)",
    "target.of.assay": "Nuclear receptor subfamily 1 group I member 2 (Rattus norvegicus)",
    "units.of.measure": "%",
    "max activation": -1.06
  },
  {
    "compound": "C#CCN[C@@H]1CCc2ccccc21",
    "target.of.assay": "Nuclear receptor subfamily 1 group I member 2 (Rattus norvegicus)",
    "units.of.measure": "%",
    "max activation": -3.04
  },
  {
    "compound": "CN1CCOC(c2ccccc2)c2ccccc2C1 (stereo unspecified)",
    "target.of.assay": "Nuclear receptor subfamily 1 group I member 2 (Rattus norvegicus)",
    "units.of.measure": "%",
    "max activation": -1.81
  }
]
